// values below are reported whole-cell filipin (z-score)
# Tested on: A431
# method: whole-cell filipin (free cholesterol) integrated intensity, Z-score; higher = more cholesterol staining
# assay.setup: compound concentration in added solution (µM; 5 µl added to 20 µl cells): 10; 18 h
Structures can show the parent of a compound that is named as a salt.
Would you mind answering with just the numeric figure?

Recorded whole-cell filipin (z-score), per entry:
>>> observed("CCC1(c2ccccc2)C(=O)NCNC1=O")
-0.586
>>> observed("CC(C)/N=c1\\cc2n(-c3ccc(Cl)cc3)c3ccccc3nc-2cc1Nc1ccc(Cl)cc1")
-0.119
>>> observed("COc1ccccc1Oc1c(NS(=O)(=O)c2ccc(C(C)(C)C)cc2)nc(-c2ncccn2)nc1OCCO")
-0.199
>>> observed("NCC[C@H](O)C(=O)N[C@@H]1C[C@H](N)[C@@H](O[C@H]2O[C@H](CN)[C@@H](O)[C@H](O)[C@H]2O)[C@H](O)[C@H]1O[C@H]1O[C@H](CO)[C@@H](O)[C@H](N)[C@H]1O [Amikacin hydrate]")
-1.06
>>> observed("COc1ccc(NS(=O)(=O)c2ccc(N)cc2)nn1")
-0.449
>>> observed("N[C@@H]1CONC1=O")
-0.132
>>> observed("CN1CCN(c2c(F)cc3c(=O)c(C(=O)O)cn4c3c2SCC4)CC1")
0.0183
>>> observed("O=c1[nH]c(=O)n([C@H]2C[C@H](O)[C@@H](CO)O2)cc1I")
-0.368

**Query** whole-cell filipin (z-score) for Cc1c(O)c(=O)n(-c2ccccc2)n1C [Antipyrine, 4-hydroxy] ?
**Result** -0.48

**Query** # repeat for CN(C)CCCN1c2ccccc2CCc2ccc(Cl)cc21 [Clomipramine hydrochloride]
**Result** 1.1

**Query** # repeat for Nc1ccccc1S(N)(=O)=O [2-Aminobenzenesulfonamide]
**Result** -0.474

**Query** # repeat for CCCN(CCC)S(=O)(=O)c1ccc(C(=O)O)cc1
**Result** -0.756

**Query** # repeat for C=C1C[C@H]2[C@@H]3C=C(C)C4=CC(=O)CC[C@]4(C)[C@H]3CC[C@]2(C)[C@@]1(OC(C)=O)C(C)=O [Melengestrol acetate]
**Result** 2.08

**Query** # repeat for CCOc1ccccc1OCC1CNCCO1 (centres undefined) [Viloxazine hydrochloride]
**Result** -0.124

**Query** # repeat for CCCCOC(=O)c1ccc(O)cc1
**Result** -0.203

**Query** # repeat for CN1CCCCC1CCN1c2ccccc2Sc2ccc([S+](C)[O-])cc21 (centres undefined) [Mesoridazine besylate]
**Result** 0.066

**Query** # repeat for CCS(=O)(=O)CCn1c([N+](=O)[O-])cnc1C
**Result** -0.195

**Query** # repeat for CCN(CC)CCCC(C)Nc1ccnc2cc(Cl)ccc12 (centres undefined) [Chloroquine diphosphate]
**Result** 0.0406

**Query** # repeat for CCCOc1ccccc1-c1nc2[nH]nnc2c(=O)[nH]1
**Result** -0.471

* * *

// values below are reported filipin (z-score)
# Test system: A431
# method: filipin (cholesterol) integrated intensity within LBPA endosomes, Z-score; higher = more cholesterol in LBPA endosomes
# assay.setup: compound concentration in added solution (µM; 5 µl added to 20 µl cells): 10; 18 h
Counter-ions that a name gives are not always drawn.
Would you mind answering with just the numeric figure?

Recorded filipin (z-score), per entry:
>>> observed("N[C@@H](C(=O)N[C@@H]1C(=O)N2C(C(=O)O)=C(Cl)CS[C@H]12)c1ccccc1 [Cefaclor hydrate]")
-0.522
>>> observed("CC(CN(C)C)C(C)(O)Cc1ccc(Cl)cc1 (stereo not drawn) [Clobutinol hydrochloride]")
-0.624
>>> observed("CCCCC(O)c1ccccc1 (stereo not drawn)")
-0.553
>>> observed("CNC(=O)c1c(I)c(C(=O)NCC(=O)Nc2c(I)c(C(=O)O)c(I)c(C(=O)NCCO)c2I)c(I)c(N(C)C(C)=O)c1I")
-0.384
>>> observed("CC1(C)S[C@@H]2[C@H](NC(=O)[C@H](N)c3ccc(O)cc3)C(=O)N2[C@H]1C(=O)O")
-0.524
>>> observed("COc1ccc(CCN(C)CCCC(C#N)(c2ccc(OC)c(OC)c2)C(C)C)cc1OC (stereo not drawn) [Verapamil hydrochloride]")
2.46

**Query** filipin (z-score) for CN1CCC(=C2c3ccccc3CC(=O)c3sccc32)CC1 [Ketotifen fumarate] ?
**Result** 0.289

**Query** # repeat for CC[N+](C)(C)Cc1ccccc1Br [Bretylium tosylate]
**Result** -0.5

* * *

// values below are reported whole-cell filipin (z-score)
# Test system: HeLa MZ
# method: whole-cell filipin (free cholesterol) integrated intensity, Z-score; higher = more cholesterol staining
# assay.setup: compound concentration in added solution (µM; 5 µl added to 20 µl cells): 10; 18 h
Structures can show the parent of a compound that is named as a salt.
Would you mind answering with just the numeric figure?

Recorded whole-cell filipin (z-score), per entry:
>>> observed("Clc1ccccc1CN1CCc2sccc2C1 [Ticlopidine hydrochloride]")
-0.662
>>> observed("CN1C(=O)CC(c2ccccc2)C1=O (configuration not stated) [Phensuximide]")
-0.774
>>> observed("CC(C)NC[C@H](O)COc1ccc(CC(N)=O)cc1 [(S)-(-)-Atenolol]")
-0.509
>>> observed("COc1ccc2[nH]c([S+]([O-])Cc3ncc(C)c(OC)c3C)nc2n1 (configuration not stated)")
0.112
>>> observed("C[C@@H](c1ncncc1F)[C@](O)(Cn1cncn1)c1ccc(F)cc1F")
-0.527

**Query** Give HeLa MZ whole-cell filipin (z-score) for CN(CCCCCCCCCCN(C)C(=O)Oc1cccc([N+](C)(C)C)c1)C(=O)Oc1cccc([N+](C)(C)C)c1 [Demecarium bromide]
**Result** -0.617

**Query** # repeat for O=C(Nc1cccc2c(=O)cc(-c3nnn[nH]3)oc12)c1ccc(OCCCCc2ccccc2)cc1
**Result** -0.657

**Query** # repeat for CN1CC2c3ccccc3Oc3ccc(Cl)cc3C2C1 (configuration not stated) [Asenapine maleate]
**Result** -0.413

**Query** # repeat for CC1(C)S[C@@H]2[C@H](NC(=O)[C@H](N)c3ccccc3)C(=O)N2[C@H]1C(=O)O [Ampicillin trihydrate]
**Result** -0.707

**Query** # repeat for COc1ccccc1O
**Result** -0.2

* * *

# Test system: HeLa MZ
# method: filipin (cholesterol) integrated intensity within LBPA endosomes, Z-score; higher = more cholesterol in LBPA endosomes
# assay.setup: compound concentration in added solution (µM; 5 µl added to 20 µl cells): 10; 18 h
Where a name gives a salt, the structure may show the parent alone.
Give t when the value for filipin (z-score) is at least -0.5. Give f when it is less.

>>> class("CNc1ncnc2c1ncn2[C@@H]1O[C@H](CO)[C@@H](O)[C@H]1O")
"t"
>>> class("Cc1cc(-c2ccccc2)nnc1NCCN1CCOCC1 [Minaprine dihydrochloride]")
"f"
>>> class("COc1ccc(-c2ccc(=N)n(CCCC(=O)O)n2)cc1 [Gabazine bromide]")
"f"
>>> class("CS(=O)(=O)OCCCCOS(C)(=O)=O")
"t"
>>> class("CN1CCC(=C2c3ccccc3Sc3ccccc32)CC1 [Pimethixene maleate]")
"t"

Now let's try a different one.
**Query** Does the molecule O=C(CCCN1CCN(c2ccccn2)CC1)c1ccc(F)cc1 have recorded filipin (z-score) that is -0.5 or more?
**Result** t

* * *

// values below are reported filipin (z-score)
# Test system: HeLa MZ
# method: filipin (cholesterol) integrated intensity within LBPA endosomes, Z-score; higher = more cholesterol in LBPA endosomes
# assay.setup: compound concentration in added solution (µM; 5 µl added to 20 µl cells): 10; 18 h
Counter-ions that a name gives are not always drawn.

Recorded filipin (z-score), per entry:
>>> observed("O=C(O[C@@H]1C[C@@H]2C[C@H]3C[C@H](C1)N2CC3=O)c1c[nH]c2ccccc12 [Dolasetron mesilate]")
-0.224
>>> observed("CNCCC(Oc1ccc(C(F)(F)F)cc1)c1ccccc1 (configuration not stated) [Fluoxetine hydrochloride]")
1.62
>>> observed("C[N+](C)(C)CCCCCC[N+](C)(C)C [Hexamethonium dibromide dihydrate]")
-0.624
>>> observed("Oc1ccc(OCc2ccccc2)cc1 [Monobenzone]")
-0.736
>>> observed("CC1(C)S[C@@H]2[C@H](NC(=O)Cc3ccccc3)C(=O)N2[C@H]1C(=O)O [Benzathine benzylpenicillin]")
-0.279
>>> observed("CC(C)(Sc1cc(C(C)(C)C)c(O)c(C(C)(C)C)c1)Sc1cc(C(C)(C)C)c(O)c(C(C)(C)C)c1 [Probucol]")
-0.445
>>> observed("CCn1cc(C(=O)O)c(=O)c2cc(F)c(N3CCNC(C)C3)c(F)c21 (configuration not stated) [Lomefloxacin hydrochloride]")
-0.65
>>> observed("CC1(C)O[C@@H]2C[C@H]3[C@@H]4C[C@H](F)C5=CC(=O)C=C[C@]5(C)[C@@]4(F)[C@@H](O)C[C@]3(C)[C@]2(C(=O)CO)O1 [Fluocinolone acetonide]")
-0.367

**Query** Give HeLa MZ filipin (z-score) for CN(C)CC/C=C1/c2ccccc2COc2ccc(CC(=O)O)cc21 [Olopatadine hydrochloride]
**Result** -0.275

**Query** # repeat for CN(C)CCC(c1ccc(Br)cc1)c1ccccn1 (configuration not stated) [Brompheniramine maleate]
**Result** 0.233

**Query** # repeat for Cc1ccccc1OCC(O)CO (configuration not stated) [Mephenesin]
**Result** -0.223

**Query** # repeat for CN1Cc2c(N)cccc2C(c2ccccc2)C1 (configuration not stated) [Nomifensine maleate]
**Result** -0.516
